src = paper PMC10786891

Consider the following binders; for each one, report its pKd.
target_of_assay: T1, EsCas13d, nuclease-dead (Eubacterium siraeum, UniProt B0MS50, R295A;H300A;R849A;H854A)
T1 sequence: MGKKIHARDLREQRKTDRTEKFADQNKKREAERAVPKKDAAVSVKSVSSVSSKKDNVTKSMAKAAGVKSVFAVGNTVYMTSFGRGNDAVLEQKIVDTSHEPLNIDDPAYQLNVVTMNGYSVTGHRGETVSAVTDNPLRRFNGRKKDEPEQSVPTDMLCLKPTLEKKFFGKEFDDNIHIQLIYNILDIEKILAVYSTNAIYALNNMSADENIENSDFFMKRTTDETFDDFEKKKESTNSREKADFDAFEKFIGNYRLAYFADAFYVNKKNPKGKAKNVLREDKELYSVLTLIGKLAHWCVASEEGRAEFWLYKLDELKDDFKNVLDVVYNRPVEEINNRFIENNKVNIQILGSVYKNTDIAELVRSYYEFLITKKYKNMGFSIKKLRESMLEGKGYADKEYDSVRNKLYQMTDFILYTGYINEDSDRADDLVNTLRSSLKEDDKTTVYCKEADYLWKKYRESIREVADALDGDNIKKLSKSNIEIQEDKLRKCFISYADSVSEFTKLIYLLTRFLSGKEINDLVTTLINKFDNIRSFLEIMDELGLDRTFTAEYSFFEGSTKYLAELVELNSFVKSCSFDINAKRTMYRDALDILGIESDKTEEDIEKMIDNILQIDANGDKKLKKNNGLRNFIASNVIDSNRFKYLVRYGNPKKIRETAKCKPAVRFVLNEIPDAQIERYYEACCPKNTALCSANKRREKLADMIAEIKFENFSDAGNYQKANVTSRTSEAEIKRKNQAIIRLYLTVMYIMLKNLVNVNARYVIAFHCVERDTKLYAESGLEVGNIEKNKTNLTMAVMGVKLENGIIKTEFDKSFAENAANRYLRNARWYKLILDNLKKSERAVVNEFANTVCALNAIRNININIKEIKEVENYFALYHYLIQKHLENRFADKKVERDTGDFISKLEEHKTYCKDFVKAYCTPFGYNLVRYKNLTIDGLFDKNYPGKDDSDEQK
test_method_notes: crRNA (strand 1, pre-loaded); Mg2+; 40 mM Tris-HCl pH 7.5, 150 mM NaCl, 6 mM MgCl2, 1 mM DTT, 0.1% Tween-20, 0.2 mg/ml BSA; 25 C; 10 min per concentration, then washed
experimental_parameters: tags: His6-TwinStrep-SUMO cleaved; N-terminal SNAP kept (SNAP-Surface 488); label: 3' end held by stalled T7 RNA polymerase
Kindly note that pKd refers to -log10 of the concentration in mol/L and answer with the value alone.

Query: # lookup: pKd of target 1 insG 3' of 8,insC 3' of 8 (mixed) RNA 1: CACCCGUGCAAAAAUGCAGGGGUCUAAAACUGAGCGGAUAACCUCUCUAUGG RNA 2: GGGAAUGGAUCCACAUCUACGAAUUCGUACCAUAGAGAGGUUAUGCCCGCUCACCGAGAUCGGAAGAGCACACGU
Reply: 7.89

Query: Fill in: pKd of target 2 MT 5'PFS GCG 3'PFS AUU (mixed) RNA 1: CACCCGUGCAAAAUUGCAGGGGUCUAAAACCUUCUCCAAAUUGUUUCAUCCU RNA 2: GGGAAUGGAUCCACAUCUACGAAUUCGCGAGGAUGAAACAAUUUGGAGAAGAUUAGAUCGGAAGAGCACACGU is ___
Reply: 7.90
